cell viability values by entry
System: OCI-AML2;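 also: after 48 h exposure read by CellTiter-Glo luminescence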
protocol-summary: cell viability relative to vehicle control; higher = less cytotoxic
condition-summary: 10 µM; SRSF2 genotype: wt/wt
reported-metric: cell viability (%)

compound="CC(C)c1cc2c(cc1S(=O)(=O)O)[C@@]1(C)CCC[C@@](C)(C(=O)O)[C@@H]1CC2 [Ecabet sodium]" numeric_value=91.8
compound=CCN(C)S(=O)(=O)Nc1ccc(F)c(C(=O)c2c[nH]c3ncc(-c4cnc(C5CC5)nc4)cc23)c1F numeric_value=84.7
compound=C[C@H](CCC(=O)NCC(=O)O)[C@H]1CC[C@H]2[C@@H]3[C@H](O)C[C@@H]4C[C@H](O)CC[C@]4(C)[C@H]3C[C@H](O)[C@]12C numeric_value=98
compound="COc1ccc(C2CC(=O)c3c(O)cc(OC4OC(COC5OC(C)C(O)C(O)C5O)C(O)C(O)C4O)cc3O2)cc1OC (stereo not given)" numeric_value=104
compound=CN(CCNc1ccnc2cc(Cl)ccc12)CCNc1ccnc2cc(Cl)ccc12 numeric_value=0.6
